Assay: RP, Waters ACQUITY UPLC HSS T3, 150 × 2 mm, 1.7 µm, 30 °C, 0.4 mL/min, estimated dead time 0.75 min; A: water + 0.2% formic acid; B: 2% water + 98% acetonitrile + 0.2% formic acid; gradient (min/%B) 0/0 2.5/0 7.5/10 10/100 12/100 18/0 25/0
Settings: stereoisomer not certain
Can you tell me LC retention time for the items I'm about to list?
Give bare numbers, in min.

O=C(O)C=Cc1ccc(O)c(OC2OC(CO)C(O)C(O)C2O)c1 (stereo not given) [Caffeic acid 3-glucoside]; 8.96
CC(=O)C(=O)O [pyruvic acid]; 4.6
O=P(O)(O)OC(CO)CO [glycerol 2-phosphate]; 1.53

Return reported LC retention time values for all items listed beneath this line.
1. O=C(COP(=O)(O)O)Cc1cnc[nH]1 [3-(imidazol-4-yl)-2-oxopropyl dihydrogen phosphate]
2. O=C(O)[C@H](O)[C@@H](O)[C@H](O)CO [D-xylonic acid]
3. C#CC1(OC(C)=O)CCC2C3CCC4=CC(=O)CCC4C3CCC21C (stereo not given) [norethindrone acetate]
4. O=C(O)C1OC(O)C(O)C(O)C1O (stereo not given) [Glucuronic Acid]
5. O=C1CC[C@@H](C(=O)O)N1 [5-oxo-L-proline]

Data returned:
1. 2.09
2. 1.69
3. 10.5
4. 1.61
5. 4.72

Batch request: LC retention time for each of the following molecules.
1. O=C(O)CCCCCCCC(=O)O [azelaic acid]
2. O=C(O)CC(=O)O [malonic acid]
3. O=C(O)/C=C/c1ccc(O[C@@H]2O[C@H](CO)[C@@H](O)[C@H](O)[C@H]2O)cc1 [4-O-beta-D-glucosyl-4-coumaric acid]

Data returned:
[9.61, 2.64, 9.11]

// each listed molecule needs a value for LC retention time
1. O=C([O-])C(O)C(O)C(O)C(O)C(=O)[O-] (stereo not given) [glucarate(1-)]
2. NC(=O)NC1NC(=O)NC1=O (stereo not given) [allantoin]
3. O=C(O)C=C(CC(=O)O)C(=O)O [cis-aconitic acid]
4. O=C(O)C1OC(OC2C(C(=O)O)OC(O)C(O)C2O)C(O)C(O)C1O (stereo not given) [digalacturonic acid]
5. CC(=O)NC=CSC1=C(C(=O)O)N2C(=O)C(C(C)OS(=O)(=O)O)C2C1 (stereo not given) [epithienamycin E]
6. N[C@@H](CC(=O)O)C(=O)O [L-aspartic acid]

Data returned:
1: 1.57; 2: 1.76; 3: 4.46; 4: 1.58; 5: 4.43; 6: 1.53

Please look at the items below and tell me LC retention time for each one, in order.
1. CS(=O)(=O)CCC(N)C(=O)O (stereo not given) [methionine sulfone]
2. CC1(C)SC2C(NC(=O)C(C(=O)O)c3ccccc3)C(=O)N2C1C(=O)O (stereo not given) [carbenicillin]

Data returned:
1: 1.9; 2: 1.73

Data request: Any idea what its LC retention time is? The molecule is O=C(O)c1ccc(O)cc1 [4-hydroxybenzoic acid]
Data returned: 9.88

---

Assay: RP, Waters ACQUITY UPLC HSS T3, 150 × 2 mm, 1.7 µm, 30 °C, 0.4 mL/min, estimated dead time 0.75 min; A: water + 0.2% formic acid; B: 2% water + 98% acetonitrile + 0.2% formic acid; gradient (min/%B) 0/0 2.5/0 7.5/10 10/100 12/100 18/0 25/0
Settings: stereoisomer not certain
Please provide measured LC retention time for the entries that follow.
One number for each entry, in min.

Past entries and their recorded results:
O=C(O)[C@H](O)[C@@H](O)[C@H](O)[C@H](O)COP(=O)(O)O; 1.55
NC(CCC(=O)O)C(=O)O (stereo not given); 1.62
CC(C)CC(=O)C(=O)O; 9.46
O=C(CO)CO; 3.02

Now for another entry.
Data request: So what's the measured LC retention time for this one? "O=C(O)[C@H](O)[C@@H](O)[C@H](O)[C@H](O)CO"
Data returned: 1.61

---

Assay: RP, Waters ACQUITY UPLC HSS T3, 150 × 2 mm, 1.7 µm, 30 °C, 0.4 mL/min, estimated dead time 0.75 min; A: water + 0.2% formic acid; B: 2% water + 98% acetonitrile + 0.2% formic acid; gradient (min/%B) 0/0 2.5/0 7.5/10 10/100 12/100 18/0 25/0
Conditions: stereoisomer not certain
Provide the recorded LC retention time for the entries that follow.
Answers are plain numbers, in min.

For each of the compounds below, state LC retention time.
1. NC(Cc1c[nH]c2ccccc12)C(=O)O (stereo not given)
2. N#CCC(N)C(=O)O (stereo not given)
3. CC(C(=O)[O-])=C(C)C(=O)[O-] [dimethylmaleate(2-)]
4. O=C1O[C@H](CO)[C@@H](O)[C@H](O)[C@H]1O

Data returned:
1. 8.87
2. 1.51
3. 1.67
4. 2.02

Data request: // LC retention time lookup, key: O=P([O-])([O-])OP(=O)([O-])[O-] [diphosphate(4-)]
Data returned: 1.47

---

Assay: RP, Waters ACQUITY UPLC HSS T3, 150 × 2 mm, 1.7 µm, 30 °C, 0.4 mL/min, estimated dead time 0.75 min; A: water + 0.2% formic acid; B: 2% water + 98% acetonitrile + 0.2% formic acid; gradient (min/%B) 0/0 2.5/0 7.5/10 10/100 12/100 18/0 25/0
Settings: stereoisomer not certain
Hi! Just check whether LC retention time is below 4 min. Below gives y, equal or above gives n.

Past entries and their recorded results:
O=C(O)CC(O)C(=O)O (centres undefined); y
OCC=Cc1ccc(O)cc1 [4-hydroxycinnamyl alcohol]; y

Data request: I wonder whether CC1=CC2=CC(C)CC23OC(=C(C)C3=O)CC(C)(C)C=CC1=O (centres undefined) has LC retention time below 4 min. Can you tell?
Data returned: n

Data request: Field: below-cutoff. Rule: recorded LC retention time strictly less than 4 min. Subject: O=C(C=Cc1ccc(O)c(O)c1)OC1CC(O)(C(=O)O)CC(O)C1O (centres undefined)
Data returned: n

Data request: Problem: For the compound COC(=O)[C@@H](N)Cc1ccc(O)cc1 [methyl L-tyrosinate] , is LC retention time under 4 min?
Data returned: n

Data request: In plain terms, does O=C(O)C1CCCCN1 (centres undefined) come in under 4 min for LC retention time?
Data returned: y

Data request: Below 4 min on LC retention time? Entry "Nc1ncnc2c1ncn2[C@@H]1O[C@H](CSCC[C@H]([NH3+])C(=O)[O-])[C@@H](O)[C@H]1O"
Data returned: y

Data request: Check if LC retention time falls below 4 min for Nc1ncnc2c1ncn2C1OC(CO)C(O)C1O (centres undefined) .
Data returned: n

Data request: In plain terms, does O=C(O)CCCCC1CCSS1 [(R)-lipoic acid] come in under 4 min for LC retention time?
Data returned: y

Data request: LC retention time under 4 min? Item: "O=C(O)c1ccco1"
Data returned: n

---

Experiment: RP, Waters ACQUITY UPLC HSS T3, 150 × 2 mm, 1.7 µm, 30 °C, 0.4 mL/min, estimated dead time 0.75 min; A: water + 0.2% formic acid; B: 2% water + 98% acetonitrile + 0.2% formic acid; gradient (min/%B) 0/0 2.5/0 7.5/10 10/100 12/100 18/0 25/0
Conditions: stereoisomer not certain
Give LC retention time for every item shown.
Numbers only, in min.

Field: example entries. Status: answers known.
C[C@](O)(CO)[C@H](O)COP(=O)(O)O [2-C-methyl-D-erythritol 4-(dihydrogen phosphate)]; 1.64
NC(=O)C[C@H](N)C(=O)O [L-asparagine]; 1.48
NC(Cc1cnc[nH]1)C(=O)O (stereo not given) [histidine]; 1.43
CC[C@H](C)[C@H](N)C(=O)O [L-isoleucine]; 5.34
O=C(O)CCC(=O)O [succinic acid]; 5.35
Nc1nc2c(ncn2C2OC(CO)C(O)C2O)c(=O)[nH]1 (stereo not given) [guanosine]; 6.32

Answer for every listed entry: what is its LC retention time? The entries follow.
1. O=C(O)CCC(=O)C(=O)O [2-oxoglutaric acid]
2. C=CC=C(O)C(=O)O [cis-2-hydroxypenta-2,4-dienoic acid]
3. OCC1OC(OC2OC(CO)C(O)C(O)C2O)C(O)C(O)C1O (stereo not drawn) [alpha,alpha-trehalose]

Data returned:
1: 3.04; 2: 1.68; 3: 1.58

Data request: For the compound O=C(O)C=CC(=O)O [fumaric acid] , what LC retention time is on record?
Data returned: 2.46

---

Experiment: RP, Waters ACQUITY UPLC HSS T3, 150 × 2 mm, 1.7 µm, 30 °C, 0.4 mL/min, estimated dead time 0.75 min; A: water + 0.2% formic acid; B: 2% water + 98% acetonitrile + 0.2% formic acid; gradient (min/%B) 0/0 2.5/0 7.5/10 10/100 12/100 18/0 25/0
Conditions: stereoisomer not certain
Observable: LC retention time (min)
One number for each entry, in min.

O=c1[nH]cnc2nc[nH]c12; 1.75
O=P(O)(O)OCC1OC(CO)(OC2OC(CO)C(O)C(O)C2O)C(O)C1O (centres undefined) [sucrose 6(F)-phosphate]; 1.81

Give measured LC retention time for every item shown.
1. O=c1ccn(C2OC(CO)C(O)C2O)c(=O)[nH]1 (centres undefined)
2. CCCCCCCCCCCCOCCOCCOCCOCCOCCO
3. O[C@@H]1c2c(sc3ccccc23)C=C[C@@H]1O (relative stereo) [cis-1,2-dihydroxy-1,2-dihydrodibenzothiophene]
4. O=C(O)C(=O)[C@H](O)COP(=O)(O)O [(R)-3-hydroxy-2-oxo-4-phosphonooxybutanoic acid]
5. CC(=O)OC(C)(C)C1CCC2(C)COC3(C)C=COC23C1 (centres undefined)
6. O=C(O)C(O)CO (centres undefined)
7. C[N+](C)(C)CC(=O)[O-]

Data returned:
[5.79, 11.8, 1.64, 9.3, 11.6, 1.92, 1.57]

src = the RepoRT retention time repository (doi:10.1038/sdata.2014.29)
